This collection of values is drawn from BigSolDB 2.1.

details: in acetone, 298.15 K
readout-name: solubility (mole fraction)

{"chemical-smiles": "O=C(O)COc1ccc2ccccc2c1", "numeric-readout": 0.0613}

====

conditions: in isobutanol, 288.15 K
readout-name: solubility (mole fraction)

{"chemical-smiles": "O=C(O)COc1ccc2ccccc2c1", "numeric-readout": 0.00854}

====

conditions: in n-propyl acetate, 293.15 K
readout-name: solubility (mole fraction)

{"chemical-smiles": "O=C(O)COc1ccc2ccccc2c1", "result": 0.0189}

====

details: in ethanol, 288.15 K

{"chemical-smiles": "O=C(O)COc1ccc2ccccc2c1", "solubility (mole fraction)": 0.0181}

====

conditions: in isobutanol, 323.15 K

{"chemical-smiles": "O=C(O)COc1ccc2ccccc2c1", "solubility (mole fraction)": 0.0422}

====

conditions: in ethyl acetate, 323.15 K

{"chemical-smiles": "O=C(O)COc1ccc2ccccc2c1", "solubility (mole fraction)": 0.0527}

====

details: in ethanol, 278.15 K
readout-name: solubility (mole fraction)

{"chemical-smiles": "O=C(O)COc1ccc2ccccc2c1", "readout-name": "solubility (mole fraction)", "numeric-readout": 0.0128}

====

settings: in ethanol, 298.15 K

{"chemical-smiles": "O=C(O)COc1ccc2ccccc2c1", "solubility (mole fraction)": 0.0261}

====

settings: in ethanol, 293.15 K
readout-name: solubility (mole fraction)

{"chemical-smiles": "O=C(O)COc1ccc2ccccc2c1", "numeric-readout": 0.0217}

====

details: in n-propanol, 308.15 K

{"chemical-smiles": "O=C(O)COc1ccc2ccccc2c1", "solubility (mole fraction)": 0.0324}

====

settings: in methanol, 293.15 K

{"chemical-smiles": "O=C(O)COc1ccc2ccccc2c1", "solubility (mole fraction)": 0.0227}

====

settings: in methyl acetate, 318.15 K

{"chemical-smiles": "O=C(O)COc1ccc2ccccc2c1", "solubility (mole fraction)": 0.0517}

====

settings: in isobutanol, 283.15 K
readout-name: solubility (mole fraction)

{"chemical-smiles": "O=C(O)COc1ccc2ccccc2c1", "readout-name": "solubility (mole fraction)", "result": 0.00685}

====

conditions: in isopropanol, 308.15 K
readout-name: solubility (mole fraction)

{"chemical-smiles": "O=C(O)COc1ccc2ccccc2c1", "numeric-readout": 0.0262}

====

conditions: in isobutanol, 293.15 K

{"chemical-smiles": "O=C(O)COc1ccc2ccccc2c1", "solubility (mole fraction)": 0.0106}

====

conditions: in methanol, 283.15 K

{"chemical-smiles": "O=C(O)COc1ccc2ccccc2c1", "solubility (mole fraction)": 0.0157}

====

details: in n-pentanol, 308.15 K

{"chemical-smiles": "O=C(O)COc1ccc2ccccc2c1", "solubility (mole fraction)": 0.0362}

====

conditions: in n-propanol, 303.15 K

{"chemical-smiles": "O=C(O)COc1ccc2ccccc2c1", "solubility (mole fraction)": 0.0273}

====

conditions: in ethyl acetate, 303.15 K

{"chemical-smiles": "O=C(O)COc1ccc2ccccc2c1", "solubility (mole fraction)": 0.0294}

====

conditions: in n-propyl acetate, 308.15 K

{"chemical-smiles": "O=C(O)COc1ccc2ccccc2c1", "solubility (mole fraction)": 0.0293}

====

settings: in methanol, 323.15 K
readout-name: solubility (mole fraction)

{"chemical-smiles": "O=C(O)COc1ccc2ccccc2c1", "numeric-readout": 0.0846}

====

conditions: in isopropanol, 283.15 K
readout-name: solubility (mole fraction)

{"chemical-smiles": "O=C(O)COc1ccc2ccccc2c1", "numeric-readout": 0.00922}

====

settings: in ethyl acetate, 308.15 K
readout-name: solubility (mole fraction)

{"chemical-smiles": "O=C(O)COc1ccc2ccccc2c1", "result": 0.034}

====

settings: in n-propanol, 298.15 K
readout-name: solubility (mole fraction)

{"chemical-smiles": "O=C(O)COc1ccc2ccccc2c1", "numeric-readout": 0.0214}

====

settings: in n-propanol, 318.15 K
readout-name: solubility (mole fraction)

{"chemical-smiles": "O=C(O)COc1ccc2ccccc2c1", "readout-name": "solubility (mole fraction)", "numeric-readout": 0.0506}

====

conditions: in ethyl acetate, 298.15 K

{"chemical-smiles": "O=C(O)COc1ccc2ccccc2c1", "solubility (mole fraction)": 0.0255}
